These measurements were taken from patent US12122761B2.

System Name: Cloned human M1 receptor (CHRM1) stably expressed in HEK293 cells (Homo sapiens, UniProt P11229)
Construct: expressed in transfected cells; host or cells: HEK293
Sequence (P11229 whole entry): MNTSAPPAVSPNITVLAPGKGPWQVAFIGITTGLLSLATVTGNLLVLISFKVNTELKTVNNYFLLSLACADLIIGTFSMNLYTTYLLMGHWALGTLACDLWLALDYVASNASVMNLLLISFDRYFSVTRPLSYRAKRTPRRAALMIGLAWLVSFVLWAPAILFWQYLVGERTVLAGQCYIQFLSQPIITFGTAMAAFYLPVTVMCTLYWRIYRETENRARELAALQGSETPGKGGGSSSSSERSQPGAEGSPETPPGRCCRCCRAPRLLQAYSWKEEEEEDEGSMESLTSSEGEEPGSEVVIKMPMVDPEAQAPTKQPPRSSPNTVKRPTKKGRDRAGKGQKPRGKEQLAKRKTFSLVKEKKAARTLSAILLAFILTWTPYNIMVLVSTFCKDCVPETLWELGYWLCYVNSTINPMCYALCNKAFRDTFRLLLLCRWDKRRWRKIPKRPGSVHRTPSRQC
Assay Remarks: CHRM1 Ca++ Flux Assay (agonist mode, FDSS 7000EX)
Assay type: cell-based
Condition Parameters: geometric mean if tested more than once
Measured Quantity: EC50 (µM)

INSERT INTO measurements (compound, result_modifier, reported_measurement) VALUES
  ('COCCOc1ccccc1C1CCN([C@@H]2CCC3(C2)CN(c2ncns2)C3)CC1', '=', 0.085),
  ('O=C(N1CC2(CC[C@@H](N3CCC(c4cc(F)ccc4C4CCOCC4)CC3)C2)C1)C1(F)CC1 (single isomer, unassigned) [Example 9L]', '=', 0.569),
  ('O=C(C1COC1)N1CC2(CC[C@@H](N3CCC(c4ccccc4OCCC4COC4)CC3)C2)C1', '=', 0.011),
  ('O=C(N1CC2(CC[C@@H](N3CCC(c4ccccc4OCC4CC4)CC3)C2)C1)C1(F)CC1 (single isomer, unassigned) [Example 7T]', '=', 4.35),
  ('O=C(C1COC1)N1CC2(CC[C@@H](N3CCC(c4ccccc4OCC4CC4)CC3)C2)C1', '=', 0.015),
  ('Fc1cccc(C2CCN([C@@H]3CCC4(C3)CN(c3cncnc3)C4)CC2)c1OC1COC1', '=', 0.052),
  ('c1ccc(C2CCN([C@@H]3CCC4(C3)CN(c3cncnc3)C4)CC2)c(OC2CCOCC2)c1', '=', 0.166),
  ('COc1ccccc1C1CCN([C@@H]2CCC3(C2)CN(c2cncc(F)c2)C3)CC1', '=', 3.76),
  ('O=C(C1COC1)N1CC2(CC[C@@H](N3CCC(c4ccccc4OCC(F)F)CC3)C2)C1', '=', 0.012),
  ('Cc1ncc(COc2ccccc2C2CCN([C@@H]3CCC4(C3)CN(C(=O)C3(F)CC3)C4)CC2)o1 (single isomer, unassigned)', '=', 2.3),
  ('O=C(N1CC2(CC[C@@H](N3CCC(c4cc(F)ccc4C4CCOCC4)CC3)C2)C1)C1(F)CC1 (single isomer, unassigned) [Example 9K]', '=', 0.036),
  ('Fc1ccc(C2CCOCC2)c(C2CCN([C@@H]3CCC4(C3)CN(c3cncnc3)C4)CC2)c1 (single isomer, unassigned) [Example 10D]', '=', 1.41),
  ('CC(C)(O)CCOc1ccccc1C1CCN([C@@H]2CCC3(C2)CN(c2ncns2)C3)CC1', '=', 0.062),
  ('COc1ccccc1C1CCN([C@@H]2CCC3(C2)CN(c2cnc(C)cn2)C3)CC1', '=', 1.26),
  ('Fc1cncc(N2CC3(CC[C@@H](N4CCC(c5cc(F)ccc5OC5CCOCC5)CC4)C3)C2)c1 (single isomer, unassigned) [Example 10B]', '>', 25),
  ('O=C(N1CC2(CC[C@@H](N3CCC(c4cc(F)ccc4OC4CCOCC4)CC3)C2)C1)C1(F)CC1 (single isomer, unassigned) [Example 9C]', '=', 0.048),
  ('FC1(COc2ccccc2C2CCN([C@@H]3CCC4(C3)CN(c3nnco3)C4)CC2)CCOCC1', '=', 0.141),
  ('CC(C)(O)COc1ccccc1C1CCN([C@@H]2CCC3(C2)CN(C(=O)C2COC2)C3)CC1', '=', 0.324),
  ('Cc1coc(N2CC3(CC[C@@H](N4CCC(c5ccc(F)cc5OCC(C)(C)O)CC4)C3)C2)n1', '>', 25),
  ('O=C(N1CC2(CC[C@@H](N3CCC(c4cc(F)ccc4OC4CCOCC4)CC3)C2)C1)C1(F)CC1 (single isomer, unassigned) [Example 9D]', '=', 1.77),
  ('Fc1ccc(OC2CCOCC2)c(C2CCN([C@@H]3CCC4(C3)CN(c3cncnc3)C4)CC2)c1 (single isomer, unassigned) [Example 10G]', '=', 0.063),
  ('c1ccc(C2CCN([C@@H]3CCC4(C3)CN(c3nnco3)C4)CC2)c(OC2COC2)c1', '=', 0.019),
  ('Fc1ccc(N2CC3(CC[C@@H](N4CCC(c5ccccc5C5CCOCC5)CC4)C3)C2)cn1', '=', 0.335),
  ('O=C(N1CC2(CC[C@@H](N3CCC(c4ccccc4OCCC(F)(F)F)CC3)C2)C1)C1(F)CC1 (single isomer, unassigned)', '=', 0.139),
  ('c1ccc(C2CCN([C@@H]3CCC4(C3)CN(c3nncs3)C4)CC2)c(OCC2CCOCC2)c1', '=', 0.616),
  ('FC(F)(F)Oc1ccccc1C1CCN([C@@H]2CCC3(C2)CN(c2ncco2)C3)CC1 (single isomer, unassigned) [Example 10L]', '=', 0.736),
  ('COc1ccccc1C1CCN([C@@H]2CCC3(C2)CN(c2cccnn2)C3)CC1', '=', 1.34),
  ('COc1ccccc1C1CCN([C@@H]2CCC3(C2)CN(c2ccc(Cl)nn2)C3)CC1', '>', 25);

###

System Name: Cloned human M1 receptor (CHRM1) stably expressed in HEK293 cells (Homo sapiens, UniProt P11229)
Construct: expressed in transfected cells; host or cells: HEK293
Assay Remarks: CHRM1 Ca++ Flux Assay (agonist mode, FDSS 7000EX)
Assay type: cell-based
Condition Parameters: HEK293, Percent Activity, read-out: M1 FDSS PA
Measured Quantity: Emax

INSERT INTO results (molecular_string, reported_measurement) VALUES
  ('Cc1nccnc1N1CC2(CC[C@@H](N3CCC(c4ccccc4OCC(C)(C)O)CC3)C2)C1', '34%'),
  ('Fc1cccc(C2CCN([C@@H]3CCC4(C3)CN(c3cncnc3)C4)CC2)c1OC1COC1', '60%'),
  ('CC(C)(O)COc1ccccc1C1CCN([C@@H]2CCC3(C2)CN(c2nnco2)C3)CC1', '74%'),
  ('COc1ccccc1C1CCN([C@@H]2CCC3(C2)CN(c2cc(Cl)nnc2Cl)C3)CC1', '41%'),
  ('COc1ccc(F)cc1C1CCN([C@@H]2CCC3(C2)CN(c2ccnnc2)C3)CC1', '60%'),
  ('c1ccc(C2CCN([C@@H]3CCC4(C3)CN(c3nnco3)C4)CC2)c(O[C@@H]2CCOC2)c1', '107%'),
  ('COc1ccccc1C1CCN([C@@H]2CCC3(C2)CN(c2cncc(C)n2)C3)CC1', '0%'),
  ('CC(C)(F)COc1ccccc1C1CCN([C@@H]2CCC3(C2)CN(C(=O)C2COC2)C3)CC1', '78%'),
  ('c1ccc(C2CCN([C@@H]3CCC4(C3)CN(c3ncncn3)C4)CC2)c(OCC2CCOCC2)c1', '0%');

###

System Name: human cloned CHRM4 receptor (M4_CHO cells) (Homo sapiens, UniProt P08173)
Construct: expressed in transfected cells; host or cells: CHO-K1
Sequence (P08173 whole entry): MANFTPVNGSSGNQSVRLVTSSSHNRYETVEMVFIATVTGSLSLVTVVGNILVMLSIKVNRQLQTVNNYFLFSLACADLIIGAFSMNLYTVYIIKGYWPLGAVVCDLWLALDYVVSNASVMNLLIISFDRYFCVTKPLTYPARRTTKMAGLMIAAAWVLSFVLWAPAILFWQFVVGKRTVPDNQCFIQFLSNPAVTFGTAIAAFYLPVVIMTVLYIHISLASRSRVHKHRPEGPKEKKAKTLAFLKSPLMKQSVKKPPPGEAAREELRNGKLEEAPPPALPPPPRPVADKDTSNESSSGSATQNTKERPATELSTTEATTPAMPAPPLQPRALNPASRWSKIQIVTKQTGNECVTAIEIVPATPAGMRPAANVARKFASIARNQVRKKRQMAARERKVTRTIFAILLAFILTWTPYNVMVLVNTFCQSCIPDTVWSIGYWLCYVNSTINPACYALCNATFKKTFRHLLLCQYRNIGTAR
Assay Remarks: CHRM4 Ca++ Flux Assay (agonist mode, FDSS 7000EX)
Assay type: cell-based
Condition Parameters: Percent Activity
Each entry belongs to exactly one class, chosen by where its M4 FDSS PA falls: band 1 = under 40%, band 2 = from 40% up to 60%, band 3 = 60% and over

INSERT INTO measurements (compound, class_name) VALUES
  ('O=C(N1CC2(CC[C@@H](N3CCC(c4ccccc4OC(F)(F)F)CC3)C2)C1)C1(F)CC1 (single isomer, unassigned) [Example 9A]', 'band 1'),
  ('Cc1nc(COc2ccccc2C2CCN([C@@H]3CCC4(C3)CN(C(=O)C3(F)CC3)C4)CC2)no1 (single isomer, unassigned) [Example 7X]', 'band 3'),
  ('Fc1ccc(C2CCOCC2)c(C2CCN([C@@H]3CCC4(C3)CN(c3cncnc3)C4)CC2)c1 (single isomer, unassigned) [Example 10C]', 'band 3'),
  ('O=C(N1CC2(CC[C@@H](N3CCC(c4ccccc4OCCO)CC3)C2)C1)C1(F)CC1 (single isomer, unassigned) [Example 7N]', 'band 3'),
  ('Cc1nnc(COc2ccccc2C2CCN([C@@H]3CCC4(C3)CN(C(=O)C3(F)CC3)C4)CC2)o1 (single isomer, unassigned) [Example 7Y]', 'band 2'),
  ('O=C(N1CC2(CC[C@@H](N3CCC(c4cc(F)ccc4C4CCOCC4)CC3)C2)C1)C1(F)CC1 (single isomer, unassigned) [Example 9L]', 'band 2'),
  ('FC(F)(F)Oc1ccccc1C1CCN([C@@H]2CCC3(C2)CN(c2nncs2)C3)CC1 (single isomer, unassigned) [Example 10M]', 'band 3'),
  ('O=C(N1CC2(CC[C@@H](N3CCC(c4ccccc4OC4CCOCC4)CC3)C2)C1)C1(F)CC1 (single isomer, unassigned) [Example 9E]', 'band 2'),
  ('COc1ccccc1C1CCN([C@@H]2CCC3(C2)CN(c2ncns2)C3)CC1 (single isomer, unassigned) [Example 10R]', 'band 1'),
  ('FC(F)Oc1ccccc1C1CCN([C@@H]2CCC3(C2)CN(c2nncs2)C3)CC1 (single isomer, unassigned) [Example 10O]', 'band 3'),
  ('Cc1nc(COc2ccccc2C2CCN([C@@H]3CCC4(C3)CN(C(=O)C3(F)CC3)C4)CC2)no1 (single isomer, unassigned) [Example 7Z]', 'band 2'),
  ('Cc1noc(C)c1COc1ccccc1C1CCN([C@@H]2CCC3(C2)CN(C(=O)C2(F)CC2)C3)CC1 (single isomer, unassigned) [Example 7U]', 'band 1'),
  ('O=C(N1CC2(CC[C@@H](N3CCC(c4cc(F)ccc4OC4CCOCC4)CC3)C2)C1)C1(F)CC1 (single isomer, unassigned) [Example 9C]', 'band 2'),
  ('O=C1CCCN1CCOc1ccccc1C1CCN([C@@H]2CCC3(C2)CN(C(=O)C2(F)CC2)C3)CC1.O=CO (single isomer, unassigned) [Example 7P]', 'band 2'),
  ('COc1ccccc1C1CCN([C@H]2CCC3(C2)CN(c2ncco2)C3)CC1 (single isomer, unassigned) [Example 10J]', 'band 3'),
  ('O=C(N1CC2(CC[C@@H](N3CCC(c4cc(F)ccc4C4(O)CCOCC4)CC3)C2)C1)C1(F)CC1 (single isomer, unassigned) [Example 9J]', 'band 1'),
  ('O=C(N1CC2(CC[C@@H](N3CCC(c4ccccc4OCC4CC4)CC3)C2)C1)C1(F)CC1 (single isomer, unassigned) [Example 7O]', 'band 2'),
  ('O=C(N1CC2(CC[C@@H](N3CCC(c4cc(F)ccc4OC4CC5(COC5)C4)CC3)C2)C1)C1(F)CC1 (single isomer, unassigned) [Example 11A]', 'band 2'),
  ('FC(F)(F)Oc1ccccc1C1CCN([C@@H]2CCC3(C2)CN(c2ncco2)C3)CC1 (single isomer, unassigned) [Example 10L]', 'band 2'),
  ('O=C(N1CC2(CC[C@@H](N3CCC(c4cc(F)ccc4C4(O)CCOCC4)CC3)C2)C1)C1(F)CC1 (single isomer, unassigned) [Example 9I]', 'band 1'),
  ('OC1CCC(c2ccccc2C2CCN([C@@H]3CCC4(C3)CN(c3nnco3)C4)CC2)CC1 (single isomer, unassigned) [Example 2O]', 'band 3'),
  ('O=C(N1CC2(CC[C@@H](N3CCC(c4ccccc4C4(O)CCOCC4)CC3)C2)C1)C1(F)CC1 (single isomer, unassigned) [Example 9H]', 'band 1'),
  ('FC(F)(F)Oc1ccccc1C1CCN([C@@H]2CCC3(C2)CN(c2nncs2)C3)CC1 (single isomer, unassigned) [Example 10N]', 'band 1');
